B1: Transcription factor SOX-4, residues 60 to 127; numbered along this chain, Q06945 (parent)
chain: KRPMNAFMVWSQIERRKIMEQSPDMHNAEISKRLGKRWKLLKDSDKIPFIREAERLRLKHMADYPDYK

# Variants of: B1
# EXPERIMENT SUMMARY: abundance fitness (aPCA) (normalised: wild type 0, dead -1); higher = more abundant; growth selection in yeast, the domain comes from the species named
# PARTICULARS: Homo sapiens
Assign class by abundance fitness: not lower than -0.2 means condition met; lower than -0.2 means condition not met.

Here are 5 variants together with their reported answers.
{"MUTATION LABEL": "R55N", "CLASS NAME": "condition not met"}
{"MUTATION LABEL": "R33I", "CLASS NAME": "condition met"}
{"MUTATION LABEL": "D24G", "CLASS NAME": "condition met"}
{"MUTATION LABEL": "S22K", "CLASS NAME": "condition met"}
{"MUTATION LABEL": "R57M", "CLASS NAME": "condition met"}

Q. Please tell me: is the variant A53G at or over -0.2 in terms of abundance fitness?
A. condition not met

Q. Please tell me: is the variant E54N at or over -0.2 in terms of abundance fitness?
A. condition met
